# Test system: FT3469 (normal neural stem cell line)
# MEASUREMENT_DESCRIPTION: phenotypic distance (Euclidean, principal components) from DMSO controls (arbitrary units); higher = stronger morphological change;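 note: cell Painting imaging in 384-well plates, CellProfiler features reduced to at least 20 principal components, Euclidean distance versus same-plate DMSO vehicle wells (0.1% v/v), median over six images per well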
# CONDITION: 12.3 nM; exposure time: 72 h
Where a name gives a salt, the structure may show the parent alone.
EXPERIMENTAL_READOUT: phenotypic distance

1) OCCN1CCN(CCCN2c3ccccc3Sc3ccc(C(F)(F)F)cc32)CC1 [Fluphenazine dihydrochloride]: 0.668
2) COC(=O)Nc1nc2cc(Sc3ccccc3)ccc2[nH]1 [Fenbendazole]: 0.598
3) Nc1ccc(-c2ccc3ncc4ccc(=O)n(-c5cccc(C(F)(F)F)c5)c4c3c2)cn1 [Torin2]: 2
4) Clc1ccc(CSC(Cn2ccnc2)c2ccc(Cl)cc2Cl)cc1 (centres undefined) [Sulconazole nitrate]: 0.617

* * *

# Tested on: E13 (patient-derived glioblastoma stem cells of classical subtype)
# MEASUREMENT_DESCRIPTION: phenotypic distance (Euclidean, principal components) from DMSO controls (arbitrary units); higher = stronger morphological change
# CONDITION: 12.3 nM; exposure time: 72 h
Where a name gives a salt, the structure may show the parent alone.
Cut-off 2 on phenotypic distance, inclusive. At or above means true; below means false.

1) CCC[C@@H]1C[C@@H](C(=O)N[C@@H]([C@H]2O[C@H](SC)[C@H](O)[C@@H](O)[C@H]2O)[C@@H](C)O)N(C)C1 [Lincomycin hydrochloride]: false
2) O=C(/C=C\n1cnc(-c2cc(C(F)(F)F)cc(C(F)(F)F)c2)n1)NNc1cnccn1 [Selinexor]: true
3) NCc1ccccc1CC(=O)N[C@@H]1C(=O)N2C(C(=O)O)=C(CSc3nnnn3CC(=O)O)CS[C@H]12 [Ceforanide]: false
4) CN1C(=O)CC(c2ccccc2)C1=O (configuration not stated) [Phensuximide]: true
5) Nc1ccc(-c2ccc3ncc4ccc(=O)n(-c5cccc(C(F)(F)F)c5)c4c3c2)cn1 [Torin2]: true
6) C[C@@]12C(=O)OC(=O)[C@]1(C)[C@H]1CC[C@@H]2O1 [Cantharidin]: false
7) COc1cccc2c(NCc3ccccc3)nc(-n3c(N)nc4ccccc43)nc12 [ML240]: false
8) CC(=O)CC(c1ccc([N+](=O)[O-])cc1)c1c(O)c2ccccc2oc1=O (configuration not stated) [Acenocoumarol]: false
9) COc1cc2c(cc1O)CC[C@@H]1[C@@H]2CC[C@]2(C)[C@@H](O)CC[C@@H]12 [2-methoxyestradiol]: false
10) C=C[C@H]1CN2CC[C@H]1C[C@@H]2[C@@H](O)c1ccnc2ccc(OC)cc12 [Quinidine hydrochloride monohydrate]: true
11) COC(=O)Nc1nc2cc(Sc3ccccc3)ccc2[nH]1 [Fenbendazole]: false
12) COc1cc2c(cc1-c1c(C)noc1C)ncc1[nH]c(=O)n([C@H](C)c3ccccn3)c12: false
13) Nc1ccn([C@@H]2O[C@H](CO)[C@@H](O)C2(F)F)c(=O)n1 [Gemcitabine HCl]: true
14) CCCCCCNC(=O)n1cc(F)c(=O)[nH]c1=O [Carmofur]: false
15) O=C(Nc1ccc([N+](=O)[O-])cc1Cl)c1cc(Cl)ccc1O [Niclosamide]: true
16) O=C(C1CC1)N1CC[C@@H](Cc2n[nH]c(=O)n2-c2ccc(-c3ccc4occc4c3)cc2)C1: true

* * *

# Test system: E28 (patient-derived glioblastoma stem cells of classical subtype)
# MEASUREMENT_DESCRIPTION: phenotypic distance (Euclidean, principal components) from DMSO controls (arbitrary units); higher = stronger morphological change
# CONDITION: 3000 nM; exposure time: 72 h
Structures can show the parent of a compound that is named as a salt.
Quick list: phenotypic distance per entry.
EXPERIMENTAL_READOUT: phenotypic distance

1. COc1ccc(C(=O)CC(=O)c2ccc(C(C)(C)C)cc2)cc1: 0.879
2. CN1[C@@H]2CC[C@H]1CC(OC(=O)c1c[nH]c3ccccc13)C2 (some centres not stated) [3-Tropanyl-indole-3-carboxylate hydrochloride]: 1.24
3. COC(=O)Nc1nc2cc(C(=O)c3ccc(F)cc3)ccc2[nH]1: 3.81
4. COc1cccc2c1C(=O)c1c(O)c3c(c(O)c1C2=O)C[C@@](O)(C(C)=O)C[C@@H]3O[C@H]1C[C@H](N)[C@H](O)[C@H](C)O1 [Daunorubicin hydrochloride]: 5.54
5. OCCN1CCN(CCCN2c3ccccc3Sc3ccc(Cl)cc32)CC1: 1.93
6. Cc1cc(CN2CCN(c3c(Br)cnc4nc(-c5ccc(N6CCN(C)CC6)cc5)[nH]c34)CC2)no1: 5.6
7. C=CC(=O)Nc1cc(Nc2nccc(-c3cn(C)c4ccccc34)n2)c(OC)cc1N(C)CCN(C)C [Osimertinib mesylate]: 2.16
